- experiment-summary: Effect of concentration on the stability of the solution (purity over time)
- measurement-setup: 5 wt %; in water at 25° C.
Reported Purity at Day 28 by item:
A number alone suffices; assume %.

# compound, Purity at Day 28 [%]
data = [
    ("CCN(CC)CCOC(=O)Cc1ccc(C(=O)c2ccc(C)cc2)n1C.Cl", 94.4),
]

Lab note: next compound to report on.
Query: May I ask what Purity at Day 28 has been recorded for CCN(CC)CCOC(=O)C(C)c1ccc2oc(-c3ccc(Cl)cc3)nc2c1.Cl (centres unmarked) ?
Result: 96.3

====

- experiment-summary: Effect of concentration on the stability of the solution (purity over time)
- measurement-setup: 5 wt % in 50% ethanol, 25° C.
Reported Purity (%) at hr 0 by item:
A number alone suffices; assume %.

# compound, Purity (%) at hr 0
rows = [
    ("CCOC(=O)c1ccccc1 [Ethyl benzoate, reference compound]", 98.0),
    ("CC(C)OC(=O)c1ccccc1 [Isopropyl benzoate, reference compound]", 98.5),
    ("CC(C)OC(=O)C(N)Cc1ccccc1 (centres unmarked) [Isopropyl 2-amino-3-phenylpropanoate, reference compound]", 98.7),
    ("CC(C)(C)OC(=O)C(N)Cc1ccccc1 (centres unmarked) [t-Butyl 2-amino-3-phenylpropanoate, reference compound]", 98.1),
]

Lab note: next compound to report on.
Query: May I ask what Purity (%) at hr 0 has been recorded for CC(C)(C)OC(=O)c1ccccc1 [t-Butyl benzoate, reference compound] ?
Result: 97.4

Hello, the source for this data is patent US20230157952A1, in case you need it.
